B1: Zinc finger protein 473 (Homo sapiens), Q8WTR7 (parent)
chain: MAEEFVTLKDVGMDFTLGDWEQLGLEQGDTFWDTALDNCQDLFLLDPPRPNLTSHPDGSEDLEPLAGGSPEATSPDVTETKNSPLMEDFFEEGFSQEIIEMLSKDGFWNSNFGEACIEDTWLDSLLGDPESLLRSDIATNGESPTECKSHELKRGLSPVSTVSTGEDSMVHNVSEKTLTPAKSKEYRGEFFSYSDHSQQDSVQEGEKPYQCSECGKSFSGSYRLTQHWITHTREKPTVHQECEQGFDRNASLSVYPKTHTGYKFYVCNEYGTTFSQSTYLWHQKTHTGEKPCKSQDSDHPPSHDTQPGEHQKTHTDSKSYNCNECGKAFTRIFHLTRHQKIHTRKRYECSKCQATFNLRKHLIQHQKTHAAKTTSECQECGKIFRHSSLLIEHQALHAGEEPYKCNERGKSFRHNSTLKIHQRVHSGEKPYKCSECGKAFHRHTHLNEHRRIHTGYRPHKCQECVRSFSRPSHLMRHQAIHTAEKPYSCAECKETFSDNNRLVQHQKMHTVKTPYECQECGERFICGSTLKCHESVHAREKQGFFVSGKILDQNPEQKEKCFKCNKCEKTFSCSKYLTQHERIHTRGVKPFECDQCGKAFGQSTRLIHHQRIHSRVRLYKWGEQGKAISSASLIKLQSFHTKEHPFKCNECGKTFSHSAHLSKHQLIHAGENPFKCSKCDRVFTQRNYLVQHERTHARKKPLVCNECGKTFRQSSCLSKHQRIHSGEKPYVCDYCGKAFGLSAELVRHQRIHTGEKPYVCQECGKAFTQSSCLSIHRRVHTGEKPYRCGECGKAFAQKANLTQHQRIHTGEKPYSCNVCGKAFVLSAHLNQHLRVHTQETLYQCQRCQKAFRCHSSLSRHQRVHNKQQYCL

Variants of: B1
measurementParameters: with zn792_human ZNF792, Q3KQV3
Sequence (Q3KQV3 whole entry): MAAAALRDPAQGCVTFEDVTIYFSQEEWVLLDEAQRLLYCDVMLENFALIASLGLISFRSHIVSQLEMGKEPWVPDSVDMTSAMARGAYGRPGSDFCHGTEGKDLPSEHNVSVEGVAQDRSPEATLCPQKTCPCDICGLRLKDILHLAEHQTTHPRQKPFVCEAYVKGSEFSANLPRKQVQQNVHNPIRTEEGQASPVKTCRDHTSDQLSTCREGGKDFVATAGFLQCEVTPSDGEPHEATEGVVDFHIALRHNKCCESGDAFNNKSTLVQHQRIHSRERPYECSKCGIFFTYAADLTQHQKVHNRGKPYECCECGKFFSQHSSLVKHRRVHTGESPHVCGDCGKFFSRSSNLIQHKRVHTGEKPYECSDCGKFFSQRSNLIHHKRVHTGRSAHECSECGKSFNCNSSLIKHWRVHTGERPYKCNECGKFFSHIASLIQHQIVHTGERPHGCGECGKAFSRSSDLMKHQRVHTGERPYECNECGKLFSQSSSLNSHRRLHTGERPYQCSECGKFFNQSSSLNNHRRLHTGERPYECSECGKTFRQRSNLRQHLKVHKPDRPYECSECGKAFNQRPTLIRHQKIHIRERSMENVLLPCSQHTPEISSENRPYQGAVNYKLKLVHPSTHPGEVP
measuredParameter: effect of a mutation on the interaction

S535N	with no effect
R605Q	with no effect
Y456H	with no effect
S662A	with no effect
T164M	with no effect
R223C	with no effect

The variant identified as `N82S` registered its effect of a mutation on the interaction at with no effect

Quick note, effect of a mutation on the interaction for `E309G` landed at with no effect
